biological target: Chromatin remodeling regulator CECR2 (Homo sapiens); assay: Selectivity interaction (Cellular FRAP assay) EUB0000201c CECR2
Sequence (Q9BXF3 whole entry): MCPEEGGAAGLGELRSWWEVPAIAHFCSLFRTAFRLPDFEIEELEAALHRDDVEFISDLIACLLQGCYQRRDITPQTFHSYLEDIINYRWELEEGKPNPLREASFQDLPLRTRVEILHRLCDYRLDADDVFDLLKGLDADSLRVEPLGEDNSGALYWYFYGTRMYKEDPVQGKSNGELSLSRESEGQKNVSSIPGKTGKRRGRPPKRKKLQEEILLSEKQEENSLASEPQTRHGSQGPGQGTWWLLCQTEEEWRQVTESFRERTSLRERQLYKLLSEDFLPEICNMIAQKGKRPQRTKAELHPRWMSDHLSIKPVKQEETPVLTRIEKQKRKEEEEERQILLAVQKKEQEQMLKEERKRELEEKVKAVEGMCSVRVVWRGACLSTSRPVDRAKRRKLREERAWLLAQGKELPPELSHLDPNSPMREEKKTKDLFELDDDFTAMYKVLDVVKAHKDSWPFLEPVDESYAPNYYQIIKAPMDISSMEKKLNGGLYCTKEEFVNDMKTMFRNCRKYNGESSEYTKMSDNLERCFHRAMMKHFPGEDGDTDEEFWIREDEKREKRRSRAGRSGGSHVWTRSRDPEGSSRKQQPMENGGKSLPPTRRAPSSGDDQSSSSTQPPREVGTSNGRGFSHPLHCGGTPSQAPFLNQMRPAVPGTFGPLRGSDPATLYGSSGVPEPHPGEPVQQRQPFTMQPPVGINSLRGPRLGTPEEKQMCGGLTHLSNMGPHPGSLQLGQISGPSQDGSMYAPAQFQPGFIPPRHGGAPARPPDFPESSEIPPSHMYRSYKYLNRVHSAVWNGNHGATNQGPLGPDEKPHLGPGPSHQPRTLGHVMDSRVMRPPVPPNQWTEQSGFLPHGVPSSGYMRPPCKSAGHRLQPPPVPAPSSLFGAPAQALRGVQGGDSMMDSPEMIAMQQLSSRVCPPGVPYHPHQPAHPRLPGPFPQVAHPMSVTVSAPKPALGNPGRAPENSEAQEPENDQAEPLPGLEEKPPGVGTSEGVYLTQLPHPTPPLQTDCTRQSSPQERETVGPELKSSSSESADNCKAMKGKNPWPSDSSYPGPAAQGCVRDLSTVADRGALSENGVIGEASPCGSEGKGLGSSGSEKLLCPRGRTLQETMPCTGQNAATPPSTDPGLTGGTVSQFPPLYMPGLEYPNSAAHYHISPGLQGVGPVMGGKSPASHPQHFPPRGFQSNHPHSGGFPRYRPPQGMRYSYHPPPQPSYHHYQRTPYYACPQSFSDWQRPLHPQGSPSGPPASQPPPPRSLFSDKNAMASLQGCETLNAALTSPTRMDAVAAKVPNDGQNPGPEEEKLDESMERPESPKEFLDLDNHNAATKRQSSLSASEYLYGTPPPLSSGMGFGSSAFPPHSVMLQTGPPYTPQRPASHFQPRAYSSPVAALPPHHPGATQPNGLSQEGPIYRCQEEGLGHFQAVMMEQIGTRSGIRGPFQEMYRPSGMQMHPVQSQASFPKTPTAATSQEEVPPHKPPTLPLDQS
Result Type: pEC50
The read-out pEC50 is expressed as -log10 of concentration in moles per litre.

Query: Entry CCCS(=O)(=O)c1nc(NC2CC2)cc(-c2ccc3c(ccn3C3CC(C)(C)NC(C)(C)C3)c2)n1 , system Chromatin remodeling regulator CECR2 (Homo sapiens): what pEC50 was measured?
Reply: 7.00

---

biological target: Serine/threonine-protein kinase Chk2 (Homo sapiens); assay: Selectivity interaction (NanoBRET assay (HEK293T cells)) EUB0000712a CHEK2
Sequence (O96017 whole entry): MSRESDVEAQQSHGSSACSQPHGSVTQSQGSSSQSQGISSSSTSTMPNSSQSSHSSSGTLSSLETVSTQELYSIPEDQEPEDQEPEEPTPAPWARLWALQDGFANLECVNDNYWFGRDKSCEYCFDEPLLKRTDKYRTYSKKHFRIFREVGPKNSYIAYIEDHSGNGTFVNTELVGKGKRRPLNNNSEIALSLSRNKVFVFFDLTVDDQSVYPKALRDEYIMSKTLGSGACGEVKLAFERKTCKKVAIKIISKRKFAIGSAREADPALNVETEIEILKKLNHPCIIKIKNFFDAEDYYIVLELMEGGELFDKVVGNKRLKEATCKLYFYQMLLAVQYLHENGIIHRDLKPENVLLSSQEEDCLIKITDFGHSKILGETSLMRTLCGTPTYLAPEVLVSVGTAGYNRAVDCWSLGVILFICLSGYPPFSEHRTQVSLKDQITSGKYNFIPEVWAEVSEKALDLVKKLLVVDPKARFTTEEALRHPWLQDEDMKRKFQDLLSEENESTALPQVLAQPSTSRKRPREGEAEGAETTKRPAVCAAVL
Result Type: IC50

Query: Entry CS(=O)(=O)N1CCCC(NC(=O)[C@H](CCC2CCCCC2)NC(=O)c2ccc(CNC(=O)c3cnc4ccccn34)cc2)C1 (stereo partly specified) [SR-302] , system Serine/threonine-protein kinase Chk2 (Homo sapiens): what IC50 was measured?
Reply: > 25 µM

---

biological target: Cyclin-G-associated kinase (Homo sapiens, UniProt O14976); assay: Selectivity interaction (Enzymatic assay) EUB0000609a GAK
Sequence (O14976 whole entry): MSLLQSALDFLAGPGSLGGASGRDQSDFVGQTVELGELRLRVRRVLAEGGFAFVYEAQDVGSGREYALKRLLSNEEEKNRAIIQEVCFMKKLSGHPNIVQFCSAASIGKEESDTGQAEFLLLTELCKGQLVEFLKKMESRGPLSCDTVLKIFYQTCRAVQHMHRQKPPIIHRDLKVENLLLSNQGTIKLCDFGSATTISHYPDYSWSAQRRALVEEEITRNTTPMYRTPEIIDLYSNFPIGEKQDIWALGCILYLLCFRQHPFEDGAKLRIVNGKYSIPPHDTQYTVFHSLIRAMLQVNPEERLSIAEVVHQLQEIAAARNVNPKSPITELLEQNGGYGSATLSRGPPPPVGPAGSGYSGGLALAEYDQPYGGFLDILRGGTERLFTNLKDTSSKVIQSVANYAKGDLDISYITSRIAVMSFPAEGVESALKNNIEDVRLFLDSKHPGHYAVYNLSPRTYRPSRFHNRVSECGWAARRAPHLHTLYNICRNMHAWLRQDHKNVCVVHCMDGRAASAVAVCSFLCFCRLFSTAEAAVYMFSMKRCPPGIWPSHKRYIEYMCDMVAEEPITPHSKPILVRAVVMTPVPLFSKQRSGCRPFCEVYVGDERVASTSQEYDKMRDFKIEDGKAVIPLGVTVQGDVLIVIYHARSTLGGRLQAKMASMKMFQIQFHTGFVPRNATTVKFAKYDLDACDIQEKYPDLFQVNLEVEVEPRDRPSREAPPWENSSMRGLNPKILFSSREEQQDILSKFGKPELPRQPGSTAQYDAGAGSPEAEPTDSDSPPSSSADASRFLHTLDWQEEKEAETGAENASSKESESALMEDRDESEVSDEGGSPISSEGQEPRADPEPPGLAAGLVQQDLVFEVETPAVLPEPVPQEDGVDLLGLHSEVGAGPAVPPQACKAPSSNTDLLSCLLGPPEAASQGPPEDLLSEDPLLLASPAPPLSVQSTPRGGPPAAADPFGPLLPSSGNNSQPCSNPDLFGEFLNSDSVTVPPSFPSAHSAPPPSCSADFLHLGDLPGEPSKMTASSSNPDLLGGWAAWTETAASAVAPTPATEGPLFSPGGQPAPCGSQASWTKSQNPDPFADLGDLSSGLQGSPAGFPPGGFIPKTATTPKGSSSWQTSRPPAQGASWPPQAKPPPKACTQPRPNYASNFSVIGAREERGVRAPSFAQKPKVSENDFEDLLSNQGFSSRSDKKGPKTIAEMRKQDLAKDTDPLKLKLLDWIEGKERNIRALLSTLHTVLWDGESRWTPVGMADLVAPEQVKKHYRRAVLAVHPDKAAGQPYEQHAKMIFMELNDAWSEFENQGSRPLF
Result Type: IC50 (nM)
Your answer is read as nM, so omit the unit and give the number.

Query: Entry COc1cc(N2CCC(O)CC2)ccc1Nc1cc(Nc2ccccc2S(=O)(=O)C(C)C)c2cc[nH]c2n1 , system Cyclin-G-associated kinase (Homo sapiens, UniProt O14976): what IC50 was measured?
Reply: 1100

---

biological target: Tyrosine-protein kinase Lyn (Homo sapiens); assay: Selectivity interaction (Z’-LYTE assay) EUB0000638a LYN
Sequence (P07948 whole entry): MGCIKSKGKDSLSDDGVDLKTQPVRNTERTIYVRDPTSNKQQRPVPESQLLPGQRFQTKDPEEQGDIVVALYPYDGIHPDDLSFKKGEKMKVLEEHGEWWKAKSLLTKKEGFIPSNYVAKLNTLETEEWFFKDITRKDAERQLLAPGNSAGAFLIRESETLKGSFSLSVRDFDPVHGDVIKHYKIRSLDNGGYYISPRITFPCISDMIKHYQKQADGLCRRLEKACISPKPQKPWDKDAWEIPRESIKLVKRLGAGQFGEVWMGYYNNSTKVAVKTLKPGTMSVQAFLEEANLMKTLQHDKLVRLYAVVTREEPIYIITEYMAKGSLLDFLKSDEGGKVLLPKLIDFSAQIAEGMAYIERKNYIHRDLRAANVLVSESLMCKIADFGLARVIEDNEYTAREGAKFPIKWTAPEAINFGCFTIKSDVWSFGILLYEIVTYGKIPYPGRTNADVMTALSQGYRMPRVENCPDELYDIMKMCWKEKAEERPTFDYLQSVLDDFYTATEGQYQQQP
pIC50: −log10 of the molar value.
Result Type: pIC50

Query: Return reported pIC50; argument: CC#CC(=O)N1CCC[C@H]1c1nc(-c2ccc(C(=O)Nc3ccccn3)cc2)c2c(N)nccn12
Reply: < 5.00

---

target: Histamine H3 receptor (Homo sapiens, UniProt Q9Y5N1); experiment: Selectivity interaction (NIBR principial panel (12 GPCRs, 3 nuclear receptors, 3 transporters, and 7 other enzymes)) EUB0000253b HRH3
Sequence (Q9Y5N1 whole entry): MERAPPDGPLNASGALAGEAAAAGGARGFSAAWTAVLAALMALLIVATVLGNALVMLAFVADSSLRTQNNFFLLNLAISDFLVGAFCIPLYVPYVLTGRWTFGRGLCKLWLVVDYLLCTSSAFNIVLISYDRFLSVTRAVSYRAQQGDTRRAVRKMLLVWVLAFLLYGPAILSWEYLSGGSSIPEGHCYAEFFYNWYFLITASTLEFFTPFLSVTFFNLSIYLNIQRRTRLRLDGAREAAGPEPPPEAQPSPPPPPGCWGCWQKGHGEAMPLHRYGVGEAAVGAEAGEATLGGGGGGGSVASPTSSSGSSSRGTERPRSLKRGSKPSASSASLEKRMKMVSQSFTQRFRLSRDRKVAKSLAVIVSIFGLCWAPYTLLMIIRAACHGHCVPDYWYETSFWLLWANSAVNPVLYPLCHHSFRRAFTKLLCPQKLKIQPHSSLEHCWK
Result Type: IC50 (µM)
Your answer is read as µM, so omit the unit and give the number.

Query: Return reported IC50; argument: Cc1c(Nc2ccc(S(=O)(=O)N3CCN(C)CC3)cc2F)nc2ccc(-c3cnn(C4CC4)c3)cn2c1=O
Reply: 4

---

molecular target: Nucleosome-remodeling factor subunit BPTF (Homo sapiens, UniProt Q12830)
Result Type: IC50 (nM)
Your answer is read as nM, so omit the unit and give the number.

Query: Return reported IC50; argument: Cc1c(Nc2ccc(S(=O)(=O)N3CCN(C)CC3)cc2F)nc2ccc(-c3cnn(C4CC4)c3)cn2c1=O
Reply: 30

---

Biological target: TGF-beta receptor type-1 (Homo sapiens, UniProt P36897)
Sequence (P36897 whole entry): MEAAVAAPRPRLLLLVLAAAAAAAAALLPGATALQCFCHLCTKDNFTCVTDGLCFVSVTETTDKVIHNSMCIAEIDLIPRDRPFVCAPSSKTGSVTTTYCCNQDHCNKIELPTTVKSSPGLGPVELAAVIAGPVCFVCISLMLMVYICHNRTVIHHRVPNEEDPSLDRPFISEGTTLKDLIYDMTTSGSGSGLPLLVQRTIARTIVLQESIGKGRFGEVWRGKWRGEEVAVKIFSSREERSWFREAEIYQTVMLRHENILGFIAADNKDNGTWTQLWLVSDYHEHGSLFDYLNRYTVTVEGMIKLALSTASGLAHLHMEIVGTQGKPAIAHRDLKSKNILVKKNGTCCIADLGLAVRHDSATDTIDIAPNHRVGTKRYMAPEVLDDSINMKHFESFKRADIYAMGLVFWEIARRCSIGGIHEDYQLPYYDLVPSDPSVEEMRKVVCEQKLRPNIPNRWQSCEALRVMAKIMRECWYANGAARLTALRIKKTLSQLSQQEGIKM
Test: Selectivity interaction (Kinase panel (enzymatic assay)) EUB0000153b TGFBR1
Result Type: IC50

Query: Return reported IC50; argument: CNc1nc(-c2ccc3c(N)n[nH]c3c2)cc(N2C[C@@H](C(=O)NC3CCCCC3)CC[C@H]2C)n1
Reply: > 10 µM
